# experimental details: chemical genetic growth profiling, strain panel (AID 1159580);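 further: tested at 20 µM; growth read once vehicle control cultures reached saturation at 30 °C; 1 = growth at the plate median or of vehicle wells; lower values mean less growth of the strain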
# condition summary: S. cerevisiae deletion strains, growth OD, locus YJR016C, strain ILV3, hits give low values
Hit rate of the full screen: of about 5,500 compounds, about 2,000 (36%) were called active. About 18% were inconclusive and are not listed. This is one part of the list.
readout: normalized growth
The response must contain the number and no unit.

Sample records with normalized growth:
[
  {
    "compound": "O=S(=O)(Nc1csc(C(F)(F)F)c1-c1ccccc1)c1cc(Br)c(Br)s1",
    "normalized growth": 0.962
  },
  {
    "compound": "N#Cc1cccc(CSc2nc3ccc(C(F)(F)F)cc3[nH]2)c1",
    "normalized growth": 0.97
  },
  {
    "compound": "CCOC(=O)c1sc(S(C)=NC(=O)Nc2ccc(Cl)cc2)c2c1CCC=C2 (configuration not stated)",
    "normalized growth": 0.976
  },
  {
    "compound": "COc1ccc(Nc2nc(NC(=O)Nc3ccc(Cl)cc3)n[nH]2)cc1",
    "normalized growth": 0.991
  },
  {
    "compound": "COc1ccc(-c2cn3cc(C)ccc3n2)cc1",
    "normalized growth": 0.979
  },
  {
    "compound": "O=S(=O)(Nc1cc(Cl)c(Cl)cc1Cl)c1cc(C(F)(F)F)cc(C(F)(F)F)c1",
    "normalized growth": 0.968
  },
  {
    "compound": "Cn1nccc1-c1cc(Cl)cc(Cl)c1O",
    "normalized growth": 0.962
  },
  {
    "compound": "Clc1ccccc1-c1csc(-c2ccncc2)n1",
    "normalized growth": 0.964
  },
  {
    "compound": "CC1=CC(=O)N(c2ccc(F)c(Cl)c2)C1=O",
    "normalized growth": 0.987
  },
  {
    "compound": "O=C(Oc1ccc2ccccc2c1C1SCCS1)c1ccc([N+](=O)[O-])o1",
    "normalized growth": 0.958
  }
]

# input # normalized growth lookup, item `Cc1c(S(=O)(=O)Nc2cccc([N+](=O)[O-])c2)sc2ccc(Cl)cc12`
# output 0.969

# input Next: `O=S(=O)(NCc1cc(Cl)cc(Cl)c1)c1cc(C(F)(F)F)cc(C(F)(F)F)c1`
# output 0.995

# input Next: `O=C(Nc1cc(C(F)(F)F)cc(C(F)(F)F)c1)C(Cl)(Cl)Cl`
# output 0.956

# input Next: `COc1ccc(-c2csc(-c3cccnc3)n2)cc1`
# output 0.955

# input Next: `O=[N+]([O-])c1ccsc1Oc1cccc(C(F)(F)F)c1`
# output 0.952

----------
# experimental details: chemical genetic growth profiling, strain panel (AID 1159580)
# condition summary: S. cerevisiae deletion strains, growth OD, locus YHR142W, strain chs7, hits give low values
The campaign covered roughly 5,500 compounds. About 2,000 (36%) were called active. Another 18% or so got no clear call; they are omitted. Some of the results follow. Where a SMILES comes first, the peptide text is derived from it.
Please note: normalized growth exactly at 1 is no. Only values below 1 get yes.

Would you please look over these solved cases?
[
  {
    "compound": "Cc1cc(CC(=O)O)n(C)c1C(=O)c1ccc(Cl)cc1",
    "class name": "no"
  },
  {
    "compound": "Clc1ccc(C(c2ccccc2Cl)C(Cl)Cl)cc1 (stereo not given)",
    "class name": "yes"
  },
  {
    "compound": "CC(=O)N[C@@H](CC(=O)O)C(=O)N[C@@H](CCC(=O)O)C(=O)O (Ac-Asp-Glu-OH)",
    "class name": "no"
  },
  {
    "compound": "COc1c(C)c2c(c(O)c1C/C=C(\\C)CCC(=O)O)C(=O)OC2",
    "class name": "yes"
  },
  {
    "compound": "Clc1ccc(CO/N=C(/Cn2ccnc2)c2ccc(Cl)cc2Cl)c(Cl)c1",
    "class name": "yes"
  },
  {
    "compound": "CC1(C)N([O-])[N+](=O)C1(C)Br (stereo not given)",
    "class name": "yes"
  }
]

# input Bench note: check whether C=C[C@@]1(C)CC(=O)[C@@]2(O)[C@](C)(O1)[C@@H](OC(C)=O)[C@@H](O)C1C(C)(C)CC[C@H](O)[C@@]12C (stereo not given in full) shows normalized growth below 1
# output yes

# input Next: CC(=O)O[C@H]1CC[C@@]2(C)C(C[C@@H](OC(C)=O)[C@]3(C)C2CC[C@@]2(C)[C@H](c4ccoc4)OC(=O)[C@H]4O[C@]423)C1(C)C (stereo not given in full)
# output no

# input Next: `Fc1ccc([C@@H]2CCNC[C@H]2COc2ccc3c(c2)OCO3)cc1`
# output yes

# input Next: CC1OC(O[C@H]2/C=C/C=C/C=C/C=C/C=C/C=C/C=C/[C@H](C)[C@@H](O)[C@@H](C)[C@H](C)OC(=O)CC(O)CC(O)CCC(O)C(O)CC(O)C[C@]3(O)C[C@H](O)C(C(=O)O)C(C2)O3)C(O)[C@H](N)C1O (stereo not given in full)
# output yes

# input Next: `NC(N)=NCCN1CCCCCCC1`
# output no

----------
# experimental details: chemical genetic growth profiling, strain panel (AID 1159580);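 further: tested at 20 µM; growth read once vehicle control cultures reached saturation at 30 °C; 1 = growth at the plate median or of vehicle wells; lower values mean less growth of the strain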
# condition summary: S. cerevisiae deletion strains, growth OD, locus YCL061C, strain MRC1, hits give low values
In all, about 5,500 compounds went through this assay and about 2,000 (36%) were called active. Roughly 18% stayed inconclusive and do not appear here. Some of the results follow.
readout: normalized growth
The response must contain the number and no unit.

Sample records with normalized growth:
[
  {
    "compound": "C[C@]12CCC3c4ccc(OC(=O)c5ccccc5)cc4CCC3C1CCC2=O (some centres not stated)",
    "normalized growth": 0.988
  },
  {
    "compound": "CC12CCC3C(=CCc4cc(O)ccc43)C1CCC2=O (configuration not stated)",
    "normalized growth": 0.965
  },
  {
    "compound": "C[C@]12CCC3c4ccc(O)cc4CCC3C1CCC2=O (some centres not stated)",
    "normalized growth": 1.01
  }
]

# input # normalized growth lookup, item `NC(N)=NC(N)=Nc1ccccc1C(F)(F)F`
# output 1.01

# input Next: CC(=O)Oc1ccc2c(c1)CCC1C2CC[C@]2(C)C(=O)CCC12 (some centres not stated)
# output 0.985

# input Next: CN(C)CCC(c1ccccc1)c1ccccn1 (configuration not stated)
# output 1.01

# input Next: `CCOC(=O)CNc1ccc(Cl)c(Cl)c1`
# output 0.977

----------
# experimental details: chemical genetic growth profiling, strain panel (AID 1159580);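 further: tested at 20 µM; growth read once vehicle control cultures reached saturation at 30 °C; 1 = growth at the plate median or of vehicle wells; lower values mean less growth of the strain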
# condition summary: S. cerevisiae deletion strains, growth OD, locus YMR001C, strain CDC5, hits give low values
The campaign covered roughly 5,500 compounds. About 2,000 (36%) were called active. Not shown: some 18% with an inconclusive outcome. This is one part of the list.
readout: normalized growth
The response must contain the number and no unit.

Sample records with normalized growth:
[
  {
    "molecule": "COc1ccc2c(c1)CCc1sc(NC(=O)c3ccco3)nc1-2",
    "value": 0.946
  },
  {
    "molecule": "O=S(=O)(NCc1ccc(C(F)(F)F)cc1)c1cccc(C(F)(F)F)c1",
    "value": 0.987
  },
  {
    "molecule": "Clc1cc(Cl)cc(C=NCc2ccccc2)c1",
    "value": 0.947
  },
  {
    "molecule": "CCOC(=O)c1sc(S(C)=NC(=O)Nc2ccc(Cl)cc2)c2c1CCC=C2 (configuration not stated)",
    "value": 0.978
  },
  {
    "molecule": "Cc1ccc(S(=O)(=O)Nc2nc(-c3ccc(C)c(Cl)c3)c(C)s2)cc1",
    "value": 0.988
  }
]

# input # normalized growth lookup, item `O=C(Nc1ccncc1)c1cc(-c2ccccc2)oc1C(F)(F)F`
# output 0.996

# input Next: `Nc1ccccc1C(=O)Nc1cc(C(F)(F)F)cc(C(F)(F)F)c1`
# output 0.975

----------
# experimental details: chemical genetic growth profiling, strain panel (AID 1159580);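 further: tested at 20 µM; growth read once vehicle control cultures reached saturation at 30 °C; 1 = growth at the plate median or of vehicle wells; lower values mean less growth of the strain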
# condition summary: S. cerevisiae deletion strains, growth OD, locus YLR320W, strain mms22, hits give low values
Hit rate of the full screen: of about 5,500 compounds, about 2,000 (36%) were called active. Not shown: some 18% with an inconclusive outcome. Some of the results follow.
The following molecules are listed with their measured normalized growth values.
The response must contain the number and no unit.

# input # normalized growth lookup, item CC(=O)O[C@H]1C[C@@]2(C)[C@@H](C[C@@H](O)C3[C@]2(C)CC[C@H]2[C@H](C)[C@H](O)CC[C@]32C)/C1=C(/CCC=C(C)C)C(=O)O (stereo partly drawn)
# output 1.06

# input Next: `COc1ccc(-c2oc3cc(OC)c(OC)c(OC)c3c(=O)c2OC)cc1`
# output 0.815

# input Next: CCCCCCCCCCCCCC(=O)OC1C(C)C2(O)C(C=C(CO)CC3(O)C(=O)C(C)=CC32)C2C(C)(C)C12OC(C)=O (stereo not drawn)
# output 0.974

# input Next: CCC(=O)OC1[C@@H]2CC3=C4CC(=O)O[C@@H](c5ccoc5)[C@]4(C)CCC3[C@@](C)(C2=O)[C@@H](CC(=O)OC)C1(C)C (stereo partly drawn)
# output 0.976

# input Next: O=c1cccc2n1CC1CC2CN2CCCC[C@@H]12 (stereo partly drawn)
# output 0.974

# input Next: C[C@@H]1CC2C3CCC4=CC(=O)C=C[C@]4(C)[C@@]3(F)[C@@H](O)C[C@]2(C)[C@@]1(O)C(=O)CO (stereo partly drawn)
# output 1

# input Next: `COc1ccc(-c2oc3cc(OC)c(OC)c(OC)c3c(=O)c2OC)cc1OC`
# output 0.99

# input Next: `CC(O)(P(=O)(O)O)P(=O)(O)O`
# output 0.983
